target: BRD4 (BDI_K57-E168) (Homo sapiens, UniProt O60885); construct: BD1: amino acids K57-E168; made in house; assay: TR-FRET bromodomain binding assay, first bromodomain of BRD4; conditions: TR-FRET assay protocol G (compound 0.92 μM-15 pM); 100 nM probe
Reported Property: Ki (nM)

Cn1cc2c3c(c[nH]c3c1=O)CN(CCC1CCOCC1)c1ccc(CS(C)(=O)=O)cc1-2
1
CCS(=O)(=O)c1ccc2c(c1)-c1cn(C)c(=O)c3[nH]cc(c13)CN2[C@@H](C)c1ccccc1
72.7

1: Cn1cc2c3c(c[nH]c3c1=O)C(C(=O)NC1(CO)CC1)N(c1ccc(F)cc1F)c1ccc(CS(C)(=O)=O)cc1-2 (racemic)
2: CN(C)C(=O)c1cc(CS(C)(=O)=O)cc2c1N(c1ccc(F)cc1F)Cc1c[nH]c3c(=O)n(C)cc-2c13
3: Cn1cc2c3c(c[nH]c3c1=O)C(c1cccc3cccnc13)N(c1ccc(F)cc1F)c1ccc(CS(C)(=O)=O)cc1-2 (stereo not drawn)
## Task # desc sort on Ki across 3 compounds Write the labels in rank order as requested.
## Result 1, 3, 2
(1: 60 nM, 3: 39 nM, 2: 12.6 nM)

###

biological target: BRD4 (BDII_E352-M457) (Homo sapiens, UniProt O60885); construct: protocol; made in house; assay: TR-FRET bromodomain binding assay, second bromodomain of BRD4; conditions: TR-FRET assay protocol G (compound 0.92 μM-15 pM); 30 nM probe
Reported Property: Ki (nM)

Worked examples follow.
CC(C)CNC(=O)C1c2c[nH]c3c(=O)n(C)cc(c23)-c2cc(CS(C)(=O)=O)ccc2N1c1ccc(F)cc1F (stereo not drawn)
21.4
Cn1cc2c3c(c[nH]c3c1=O)CN(c1ncc(F)cc1F)c1ccc(CS(C)(=O)=O)cc1-2
0.42
Cn1cc2c3c(c[nH]c3c1=O)C(Cn1ccccc1=O)N(c1ccc(F)cc1F)c1ccc(CS(C)(=O)=O)cc1-2 (single isomer, unassigned) [Example 252]
2.24

P: CCOC(=O)N1Cc2c[nH]c3c(=O)n(C)cc(c23)-c2cc(CS(C)(=O)=O)ccc21
Q: Cn1cc2c3c(c[nH]c3c1=O)CN(c1ccc(F)cc1F)c1c-2cc(CS(C)(=O)=O)cc1C1CC1
## Task Please indicate which item has the smaller measured Ki: P versus Q Answer = label.
## Result Q
(Q: 0.62 nM, P: 2.1 nM)

I: CCOC(=O)N1Cc2c[nH]c3c(=O)n(C)cc(c23)-c2cc(F)cc(F)c21
II: Cn1cc2c3c(c[nH]c3c1=O)C(C(=O)NCc1ccccc1)N(c1ccc(F)cc1F)c1ccc(CS(C)(=O)=O)cc1-2 (racemic)
## Task Quick one: lower Ki, I or II ? Reply briefly: the label of your chosen item.
## Result I

P: COCCOC(=O)N1Cc2c[nH]c3c(=O)n(C)cc(c23)-c2cc(CS(C)(=O)=O)ccc21
Q: CC(C1CCOC1=O)N1Cc2c[nH]c3c(=O)n(C)cc(c23)-c2cc(CS(C)(=O)=O)ccc21 (stereo not drawn)
## Task Lab log: flag the item ( P or Q ) with the smaller Ki figure. The response must carry the label of the picked entry.
## Result Q
(Q: 6.82 nM, P: 13.9 nM)
